Target: Muscarinic acetylcholine receptor M2 (Cavia porcellus)
Test: Antagonist affinity evaluated against Muscarinic acetylcholine receptor M2 in isolated guinea pig left atrium
Conditions: read-out: pA2 (converted)
Consider the reported Kb of an entry and match it to a band in low (below 1 nM), medium (1 nM to below 9 nM), high (9 nM or more)

Example entries and their recorded answers appear below.
CN(CCCCCCCCN(C)CCCCCCN(CC(=O)N1c2ccccc2NC(=O)c2ccccc21)CC(=O)N1c2ccccc2NC(=O)c2ccccc21)CCCCCCNCC(=O)N1c2ccccc2NC(=O)c2ccccc21	low
CN(CCCCCCCCN(C)CCCCCCN(CC(=O)N1c2ccccc2NC(=O)c2cccnc21)CC(=O)N1c2ccccc2NC(=O)c2cccnc21)CCCCCCNCC(=O)N1c2ccccc2NC(=O)c2cccnc21	medium

Request: Which class is correct for the following compound? "CN(CCCCCCN)CCCCCCCCN(C)CCCCCCNCCC(=O)N1c2ccccc2C(=O)Nc2cccnc21"
Response: medium

Request: Try this compound next: "CN(CCCCCCCCN(C)C(=O)CCCCCNCC(=O)N1c2ccccc2C(=O)Nc2cccnc21)C(=O)CCCCCN"
Response: high

Request: Here is the next compound: "CN(CCCCCCCCN(C)C(=O)CCCCCN(CC(=O)N1c2ccccc2C(=O)Nc2cccnc21)CC(=O)N1c2ccccc2C(=O)Nc2cccnc21)C(=O)CCCCCN(CC(=O)N1c2ccccc2C(=O)Nc2cccnc21)CC(=O)N1c2ccccc2C(=O)Nc2cccnc21"
Response: high

Request: Also "CN(CCCCCCCCN(C)C(=O)CCCCCNCC(=O)N1c2ccccc2C(=O)Nc2cccnc21)C(=O)CCCCCNCC(=O)N1c2ccccc2C(=O)Nc2cccnc21" , if possible.
Response: low

Request: Try "CN(CCCCCCCCN(C)CCCCCCNCC(=O)N1c2ccccc2NC(=O)c2cccnc21)CCCCCCNCC(=O)N1c2ccccc2NC(=O)c2cccnc21" next.
Response: medium

Request: Follow-up item: "CN(CCCCCCCCN(C)C(=O)CCCCCNCCCC(=O)N1c2ccccc2C(=O)Nc2cccnc21)C(=O)CCCCCN"
Response: low

Request: Try the compound "CN(CCCCCCCCN(C)C(=O)CCCCCN(CC(=O)N1c2ccccc2C(=O)Nc2cccnc21)CC(=O)N1c2ccccc2C(=O)Nc2cccnc21)C(=O)CCCCCN"
Response: high

---

Target: UniProtKB P08482
Sequence (P08482 whole entry): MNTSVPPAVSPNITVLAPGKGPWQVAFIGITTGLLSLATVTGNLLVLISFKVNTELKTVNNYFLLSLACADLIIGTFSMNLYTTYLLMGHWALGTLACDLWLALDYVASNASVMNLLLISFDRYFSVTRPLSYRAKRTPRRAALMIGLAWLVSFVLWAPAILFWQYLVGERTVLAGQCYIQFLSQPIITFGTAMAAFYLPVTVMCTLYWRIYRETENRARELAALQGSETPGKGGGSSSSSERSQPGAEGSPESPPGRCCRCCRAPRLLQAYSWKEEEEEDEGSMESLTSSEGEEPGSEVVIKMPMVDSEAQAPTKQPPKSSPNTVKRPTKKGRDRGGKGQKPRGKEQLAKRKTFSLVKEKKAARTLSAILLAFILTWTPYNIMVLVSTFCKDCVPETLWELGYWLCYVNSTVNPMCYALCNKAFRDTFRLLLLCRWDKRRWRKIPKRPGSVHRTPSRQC
assay_readout: Ki (nM)
Answers are plain numbers, in nM.

CN(CCCCCCCCN(C)CCCCCCN(CC(=O)N1c2ccccc2C(=O)Nc2cccnc21)CC(=O)N1c2ccccc2C(=O)Nc2cccnc21)CCCCCCNCC(=O)N1c2ccccc2C(=O)Nc2cccnc21	3.55
CN(CCCCCCN)CCCCCCCCN(C)CCCCCCNCCCC(=O)N1c2ccccc2C(=O)Nc2cccnc21	0.501
CN(CCCCCCCCN(C)CCCCCCNCC(=O)N1c2ccccc2NC(=O)c2ccccc21)CCCCCCNCC(=O)N1c2ccccc2NC(=O)c2ccccc21	14.8
CN(CCCCCCCCN(C)CCCCCCNCC(=O)N1c2ccccc2NC(=O)c2cccnc21)CCCCCCNCC(=O)N1c2ccccc2NC(=O)c2cccnc21	14.5

Request: # Ki lookup, item "CN(CCCCCCCCN(C)CCCCCCN(CC(=O)N1c2ccccc2NC(=O)c2cccnc21)CC(=O)N1c2ccccc2NC(=O)c2cccnc21)CCCCCCNCC(=O)N1c2ccccc2NC(=O)c2cccnc21"
Response: 12.6
